Data credit: the supplement of paper PMC6555819

The entries below come with measured PBM binding z-score values attached.
Test system: PPARg:RXRa 90nM:30nM, anti-RXR (NR concentration 90 nM, RXRa partner concentration 30 nM)
Assay: PBM binding z-score (relative to random genomic background probes); higher = stronger binding; sequences stand for … in GC…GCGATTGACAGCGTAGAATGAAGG

{"columns": ["seq text", "PBM binding z-score"],
 "data": [
  ["TATTGTAGATCAAAGGTTAAGAAAGCCGAAGCCT", 9.21],
  ["TCTAGTTGGTGACGGAGGTCACACACGACGGGTA", 3.36],
  ["ACTCGGAGGACAAAGGTCAGAACTACGCCAGTGA", 7.69],
  ["TCGAGTAGGTTACCGGGGCATTCAGGGATGAAGA", 2],
  ["CGAACTAGGTCACAGGACAGTGAAAGGCGACGTA", 7.31],
  ["CCTACGGGGCCAAGGTCATTGATCAGTCAAAGCA", 2.88]
]}

---

System: LXRb homodimer (NR concentration 270 nM)
Assay: PBM binding z-score (relative to random genomic background probes); higher = stronger binding; sequences stand for … in GC…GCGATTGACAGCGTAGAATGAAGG
Assign Yes whenever PBM binding z-score does not fall below -0.1; assign No whenever it does.

{"columns": ["seq text", "assigned class"],
 "data": [
  ["CCTAGCAGGCCAGGTTCACTCAAGCATTTCGCTT", "No"],
  ["ACTAGTTGGTCAGCTGAGGTCACACAAAATTCGG", "Yes"],
  ["TCTAGTAGGTCACGGAGGTCACACACGACGGGTA", "Yes"],
  ["GCTGCTAGGTCAGGTTGGTCTGCTAACGGGTACG", "No"],
  ["ATCGAAAGGTCGACGAGGTGAGTATGCACCGTTT", "Yes"],
  ["TTACAAAGGTGAGCTGAGGTCGTTGATCCAACTC", "No"],
  ["CGAACTAGGTCAAAGGACAGTGATAGGCGACGTA", "Yes"],
  ["CGAACTTGGTCAAAGGACAGTGAAAGGCGACGTA", "No"],
  ["AGTCAAAGTTCAGGACGAGATAACGTAAAGCACG", "Yes"],
  ["TAGCCTAGGTCATTCAGGGGGCAGTATAGAAAGC", "Yes"],
  ["CGTCCAAGGTCAACGCTAGGTCAGTGAAAGCATT", "Yes"],
  ["CCTACTGGGCCGAGGTCATTGATCAGTCAAAGCA", "No"]
]}

---

System: RARg homodimer (NR concentration 270 nM)
Test: PBM binding z-score (relative to random genomic background probes); higher = stronger binding; sequences stand for … in GC…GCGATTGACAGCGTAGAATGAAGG
Assign y whenever PBM binding z-score does not fall below 6; assign n whenever it does.

{"columns": ["seq text", "assigned class"],
 "data": [
  ["ACTAACAGGCCAAGGGTCACTCAAGATTAGTCCG", "n"],
  ["ATATGTAGGTTACATCCGGGTCTTTCAGGCTATG", "n"],
  ["ATATATAGGTTAGGGTCATTCAGAAAGTAGGGAA", "n"],
  ["CGAACTAGGTCAAAAGACAGTGAAAGGCGACGTA", "n"],
  ["CAAACTAGGTCACGAAAGGTCAAAATCGAATGAC", "y"]
]}
